# measured target: human CRFR1 (Homo sapiens, UniProt P34998)
# Sequence (P34998 24-415): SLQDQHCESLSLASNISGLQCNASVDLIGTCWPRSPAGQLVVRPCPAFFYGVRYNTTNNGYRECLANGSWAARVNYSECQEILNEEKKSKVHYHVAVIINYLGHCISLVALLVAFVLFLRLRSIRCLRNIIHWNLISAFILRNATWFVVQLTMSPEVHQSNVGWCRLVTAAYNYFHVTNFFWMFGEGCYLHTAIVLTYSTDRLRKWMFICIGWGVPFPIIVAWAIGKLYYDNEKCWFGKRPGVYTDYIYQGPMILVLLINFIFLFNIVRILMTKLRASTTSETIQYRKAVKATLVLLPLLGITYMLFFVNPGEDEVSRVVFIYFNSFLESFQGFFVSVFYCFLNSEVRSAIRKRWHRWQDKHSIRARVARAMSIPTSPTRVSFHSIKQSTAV
measured quantity: IC50 (nM)
Reply with just the number (in nM).

What measured IC50 goes with CCCCN(CC)c1nc(C)nc2c1c(C)c(C)n2-c1c(C)cc(C)cc1C [antalarmin, reference compound] ? 26

Okay, and `CCCN(CCC)c1nc(C)nc2c1sc(=O)n2-c1ccc(OC)cc1OC` ? 2150
